These data points were gathered from patent US5057520A.

Test system: P. Aeruginosa A5007
Test: Acute mouse protection test
Type: in vivo
Settings: mice infected i.p. with P. Aeruginosa A5007; oral dosing at 1 and 5 hours post-infection; observed 7 days
Readout label: Oral (ED50)

The molecule listed as CCCC(N)C(=O)NC1CCN(c2cc3c(cc2F)c(=O)c(C(=O)O)cn3C2CC2)C1 (stereo not shown) [Example 26l] has a reported Oral (ED50) of 18.2 mg/kg/day

---
The molecule listed as CCC[C@H](NC(=O)CNC(=O)CN)C(=O)NC1CCN(c2nc3c(cc2F)c(=O)c(C(=O)O)cn3-c2ccc(F)cc2F)C1 (stereo partly shown) has a reported Oral (ED50) of 3.3 mg/kg/day

The molecule listed as NC(Cc1ccccc1)C(=O)NC1CCN(c2nc3c(cc2F)c(=O)c(C(=O)O)cn3-c2ccc(F)cc2F)C1 (stereo not shown) has a reported Oral (ED50) of 18.6 mg/kg/day

The molecule listed as CCCC(N)C(=O)NC1CCN(c2nc3c(cc2F)c(=O)c(C(=O)O)cn3C2CC2)C1 (stereo not shown) [Example 26p] has a reported Oral (ED50) of 9.1 mg/kg/day
